tested on: ROCK2; details: concentration: 1 μM, replicates: in singlicate; n = 1;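 also: KINOMEscan kinase panel screen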
REPORTED METRIC: %Inh
Just the number plus its unit, please.

{"columns": ["COMPOUND", "TARGET SYSTEM", "%Inh"],
 "data": [
  ["Cl.c1ccc(Cn2ncc3cc(Nc4ncnc5ccccc45)ccc32)cc1 [GW273749]", "ROCK2", "21%"],
  ["O=c1cc(N2CCOCC2)nc2n(Cc3cccc(Cl)c3)ccn12 [GSK2296823]", "ROCK2", "0%"]
]}

// switching to the query compound
compound COC(=O)c1cccc(NC(=O)NCCNc2ccnc(Nc3ccc(F)cc3)n2)c1 [GSK1379883] , %Inh observed: 5%

All figures here come from paper PMC5540273.
